Source listed as ChEMBL document CHEMBL1133435.

Assign Relative IC50 to each entry below.
studyTarget: Retinoic acid receptor alpha (Homo sapiens) (UniProt P10276)
Sequence (P10276 whole entry): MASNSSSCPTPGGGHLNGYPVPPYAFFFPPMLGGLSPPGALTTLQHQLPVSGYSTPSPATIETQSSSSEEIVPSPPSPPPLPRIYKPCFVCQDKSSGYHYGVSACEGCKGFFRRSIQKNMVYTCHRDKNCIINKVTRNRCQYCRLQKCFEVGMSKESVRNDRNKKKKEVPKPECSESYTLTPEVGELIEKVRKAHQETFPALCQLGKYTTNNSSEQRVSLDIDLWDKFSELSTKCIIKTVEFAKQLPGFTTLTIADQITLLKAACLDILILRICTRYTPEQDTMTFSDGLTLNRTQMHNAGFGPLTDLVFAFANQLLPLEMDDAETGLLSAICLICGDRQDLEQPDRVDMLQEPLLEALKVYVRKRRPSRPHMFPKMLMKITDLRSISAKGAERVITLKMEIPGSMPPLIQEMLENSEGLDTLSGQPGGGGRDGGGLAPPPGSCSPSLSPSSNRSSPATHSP
experimentDescription: Binding affinity for Retinoic acid receptor alpha relative to ATRA
Give bare numbers, in nM.

See these solved cases before continuing.
{"structureSmilesString": "Cc1ccc(C)c2cc(-c3ccc(-c4ccc(C(=O)O)cc4)[nH]3)ccc12", "studyTarget": "Retinoic acid receptor alpha (Homo sapiens) (UniProt P10276)", "reportedEndpoint": "Relative IC50", "unitLabel": "nM", "val": 24}
{"structureSmilesString": "CC(/C=C/C=C(\\C)c1ccc2c(c1)C(C)(C)CCC2(C)C)=C\\C(=O)O", "studyTarget": "Retinoic acid receptor alpha (Homo sapiens) (UniProt P10276)", "reportedEndpoint": "Relative IC50", "unitLabel": "nM", "val": 0.49}
{"structureSmilesString": "CC(/C=C/C=C(\\C)c1ccc2c(C)ccc(C)c2c1)=C\\C(=O)O", "studyTarget": "Retinoic acid receptor alpha (Homo sapiens) (UniProt P10276)", "reportedEndpoint": "Relative IC50", "unitLabel": "nM", "val": 2.7}
{"structureSmilesString": "O=C(O)c1ccc(-c2ccc(-c3ccc4cccc(-c5ccccc5)c4c3)[nH]2)cc1", "studyTarget": "Retinoic acid receptor alpha (Homo sapiens) (UniProt P10276)", "reportedEndpoint": "Relative IC50", "unitLabel": "nM", "val": 1.4}
{"structureSmilesString": "Cc1cccc2c1C=C(c1ccc(-c3ccc(C(=O)O)cc3)[nH]1)CO2", "studyTarget": "Retinoic acid receptor alpha (Homo sapiens) (UniProt P10276)", "reportedEndpoint": "Relative IC50", "unitLabel": "nM", "val": 50}

Take each entry in turn and give its Relative IC50.
1. Cc1ccc(C)c2c1C=C(c1ccc(-c3ccc(C(=O)O)cc3)[nH]1)CO2
2. Cc1cccc2ccc(-c3ccc(-c4ccc(C(=O)O)cc4)[nH]3)cc12

Result:
[9.7, 15]

----------
studyTarget: Retinoic acid receptor alpha (Homo sapiens) (UniProt P10276)
experimentDescription: Relative transcriptional activation in CV-1 cells expressing RAR alpha receptor compared to ATRA
Assay type: functional, cell-based
runConditions: Cercopithecidae
I'd appreciate it if you marked entries T when Relative EC30 is lower than 20 nM and F when it is not.

The examples below pair each entry with its known result.
{"structureSmilesString": "O=C(O)c1ccc(-c2ccc(-c3ccc4cccc(-c5ccccc5)c4c3)[nH]2)cc1", "labelValue": "F"}
{"structureSmilesString": "CC(C)c1cccc2ccc(-c3ccc(-c4ccc(C(=O)O)cc4)[nH]3)cc12", "labelValue": "T"}
{"structureSmilesString": "Cc1cc(C)c2ccc(-c3ccc(-c4ccc(C(=O)O)cc4)[nH]3)cc2c1", "labelValue": "F"}

Problem: Criterion: Relative EC30 strictly below 20 nM. Is it met by CC(/C=C/C=C(\C)c1ccc2c(c1)C(C)(C)CCC2(C)C)=C\C(=O)O ?
Result: T

Problem: Is Relative EC30 strictly under 20 nM for the entry Cc1ccc(C)c2cc(-c3ccc(-c4ccc(C(=O)O)cc4)[nH]3)ccc12 ?
Result: T

Problem: Could you please tell me whether Relative EC30 recorded for Cc1cccc2ccc(-c3ccc(-c4ccc(C(=O)O)cc4)[nH]3)cc12 is less than 20 nM?
Result: F

Problem: Given Cc1ccc(C)c2c1C=C(c1ccc(-c3ccc(C(=O)O)cc3)[nH]1)CO2 , is recorded Relative EC30 strictly lower than 20 nM?
Result: T

Problem: Hello, is Relative EC30 of the following compound strictly smaller than 20 nM? Cc1cccc2c1C=C(c1ccc(-c3ccc(C(=O)O)cc3)[nH]1)CO2
Result: T

----------
studyTarget: UniProt P10826
Sequence (whole entry): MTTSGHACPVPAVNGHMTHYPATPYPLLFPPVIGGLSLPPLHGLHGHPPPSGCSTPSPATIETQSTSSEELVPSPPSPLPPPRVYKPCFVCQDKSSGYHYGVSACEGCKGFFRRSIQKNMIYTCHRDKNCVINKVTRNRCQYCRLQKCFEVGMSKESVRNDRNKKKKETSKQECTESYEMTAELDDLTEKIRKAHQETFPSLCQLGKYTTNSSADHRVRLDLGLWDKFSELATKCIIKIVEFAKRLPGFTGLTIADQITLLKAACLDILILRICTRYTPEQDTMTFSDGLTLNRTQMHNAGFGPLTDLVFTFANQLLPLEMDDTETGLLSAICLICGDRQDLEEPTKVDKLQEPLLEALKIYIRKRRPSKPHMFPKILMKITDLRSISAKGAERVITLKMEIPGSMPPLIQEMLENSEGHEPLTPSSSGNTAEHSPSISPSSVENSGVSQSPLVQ
experimentDescription: Binding affinity for Retinoic acid receptor beta relative to ATRA
reportedEndpoint: Relative IC50

{"structureSmilesString": "Cc1cccc2c1C=C(c1ccc(-c3ccc(C(=O)O)cc3)[nH]1)CO2", "val": "> 1000 nM"}

Batch of 4 compounds: report Relative IC50 for each.
1. CC(C)c1cccc2ccc(-c3ccc(-c4ccc(C(=O)O)cc4)[nH]3)cc12
2. Cc1c(C)c(C)c2cc(-c3ccc(-c4ccc(C(=O)O)cc4)[nH]3)ccc2c1C
3. Cc1ccc(C)c2c1C=C(c1ccc(-c3ccc(C(=O)O)cc3)[nH]1)CO2
4. O=C(O)c1ccc(-c2ccc(-c3ccc4cccc(-c5ccccc5)c4c3)[nH]2)cc1

Result:
1: > 1000 nM; 2: > 1000 nM; 3: > 1000 nM; 4: > 1000 nM

Go through the items and report each one's Relative IC50.
1. Cc1ccc(C)c2cc(-c3ccc(-c4ccc(C(=O)O)cc4)[nH]3)ccc12
2. CC(/C=C/C=C(\C)c1ccc2c(C)ccc(C)c2c1)=C\C(=O)O
3. Cc1cccc2ccc(-c3ccc(-c4ccc(C(=O)O)cc4)[nH]3)cc12
4. Cc1cc(C)c2ccc(-c3ccc(-c4ccc(C(=O)O)cc4)[nH]3)cc2c1
5. CC(/C=C/C=C(\C)c1ccc2c(c1)C(C)(C)CCC2(C)C)=C\C(=O)O

Result:
1: > 1000 nM; 2: 49 nM; 3: > 1000 nM; 4: > 1000 nM; 5: 0.34 nM

----------
studyTarget: Retinoic acid receptor gamma (Homo sapiens) (UniProt P13631)
experimentDescription: Binding affinity for Retinoic acid receptor gamma relative to ATRA
So I've got a bunch of compounds here, and I need their Relative IC50 values.

{"structureSmilesString": "O=C(O)c1ccc(-c2ccc(-c3ccc4cccc(-c5ccccc5)c4c3)[nH]2)cc1", "val": "> 1000 nM"}
{"structureSmilesString": "Cc1c(C)c(C)c2cc(-c3ccc(-c4ccc(C(=O)O)cc4)[nH]3)ccc2c1C", "val": "> 1000 nM"}
{"structureSmilesString": "Cc1cc(C)c2ccc(-c3ccc(-c4ccc(C(=O)O)cc4)[nH]3)cc2c1", "val": "> 1000 nM"}
{"structureSmilesString": "CC(/C=C/C=C(\\C)c1ccc2c(C)ccc(C)c2c1)=C\\C(=O)O", "val": "227 nM"}
{"structureSmilesString": "Cc1ccc(C)c2cc(-c3ccc(-c4ccc(C(=O)O)cc4)[nH]3)ccc12", "val": "> 1000 nM"}

Would you mind giving Relative IC50 for every compound in the list below?
1. Cc1cccc2ccc(-c3ccc(-c4ccc(C(=O)O)cc4)[nH]3)cc12
2. CC(/C=C/C=C(\C)c1ccc2c(c1)C(C)(C)CCC2(C)C)=C\C(=O)O
3. CC(C)c1cccc2ccc(-c3ccc(-c4ccc(C(=O)O)cc4)[nH]3)cc12
4. Cc1ccc(C)c2c1C=C(c1ccc(-c3ccc(C(=O)O)cc3)[nH]1)CO2
5. Cc1cccc2c1C=C(c1ccc(-c3ccc(C(=O)O)cc3)[nH]1)CO2

Result:
1. > 1000 nM
2. 0.67 nM
3. 910 nM
4. > 1000 nM
5. > 1000 nM

----------
studyTarget: Retinoic acid receptor gamma (Homo sapiens)
Sequence (whole entry): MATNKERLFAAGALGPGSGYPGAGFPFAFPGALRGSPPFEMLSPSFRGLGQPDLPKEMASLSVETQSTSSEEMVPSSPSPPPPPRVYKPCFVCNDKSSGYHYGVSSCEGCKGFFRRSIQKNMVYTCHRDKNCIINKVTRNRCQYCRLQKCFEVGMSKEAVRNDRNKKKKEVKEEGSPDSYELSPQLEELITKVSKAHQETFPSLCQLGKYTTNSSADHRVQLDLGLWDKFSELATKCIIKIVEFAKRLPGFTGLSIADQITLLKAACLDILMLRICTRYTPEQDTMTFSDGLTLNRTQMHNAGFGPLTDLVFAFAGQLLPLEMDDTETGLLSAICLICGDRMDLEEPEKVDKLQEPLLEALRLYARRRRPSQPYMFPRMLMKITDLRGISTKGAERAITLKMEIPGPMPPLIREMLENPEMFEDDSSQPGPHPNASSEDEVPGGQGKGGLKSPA
experimentDescription: Relative transcriptional activation in CV-1 cells expressing RAR gamma receptor compared to ATRA
Assay type: functional, cell-based
runConditions: Cercopithecidae
reportedEndpoint: log10 of Relative EC30 (log10 of the value in nM)
Could you please treat all values as log10 of Relative EC30 in nM?

Recorded log10 of Relative EC30, per entry:
{"structureSmilesString": "CC(C)c1cccc2ccc(-c3ccc(-c4ccc(C(=O)O)cc4)[nH]3)cc12", "log10 of Relative EC30": 1.94}
{"structureSmilesString": "Cc1ccc(C)c2c1C=C(c1ccc(-c3ccc(C(=O)O)cc3)[nH]1)CO2", "log10 of Relative EC30": 3.56}
{"structureSmilesString": "Cc1cccc2c1C=C(c1ccc(-c3ccc(C(=O)O)cc3)[nH]1)CO2", "log10 of Relative EC30": 3.72}
{"structureSmilesString": "CC(/C=C/C=C(\\C)c1ccc2c(c1)C(C)(C)CCC2(C)C)=C\\C(=O)O", "log10 of Relative EC30": -0.62}
{"structureSmilesString": "Cc1ccc(C)c2cc(-c3ccc(-c4ccc(C(=O)O)cc4)[nH]3)ccc12", "log10 of Relative EC30": 3.34}

# input for lookup
Problem: Report value: log10 of Relative EC30, system: Retinoic acid receptor gamma (Homo sapiens), molecule: CC(/C=C/C=C(\C)c1ccc2c(C)ccc(C)c2c1)=C\C(=O)O
Result: 2.82
